Experimental target: T1, mouse B7H3-His (mouse, UniProt Q8VE98 29-244, limits assumed)
T1 construct: also called recombinant mouse B7H3-His protein; not shown: His tag
T1 sequence (looked up): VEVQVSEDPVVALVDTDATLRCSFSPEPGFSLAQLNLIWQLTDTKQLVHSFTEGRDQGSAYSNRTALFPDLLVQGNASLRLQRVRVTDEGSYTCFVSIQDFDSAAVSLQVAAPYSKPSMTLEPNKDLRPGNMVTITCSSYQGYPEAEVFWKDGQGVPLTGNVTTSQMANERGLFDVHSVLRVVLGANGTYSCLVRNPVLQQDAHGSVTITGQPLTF
Assay comment: phage ELISA, cross-species
Some binders, each annotated with its measured ELISA signal.
Write the number on its own, no unit after it.

RWD5 (VHH, Camel VHH; tag not described; also called RWDS [sic]; camel antibody RWD5) VHH: AVQLVESGGGLVQPGGSLSVSCAASGFTFSVYWFYWVRQAPRQGLEWVSTIASNGSTYYSDSVKGRFTISRDNAKNTVYLQMNSLKPEDTAVYYCVSDPDYYSDYEREYKFWAQGTQVTVSS : 0.0819
RWB2 (VHH, Camel VHH; tag not described; also called camel antibody RWB2) VHH: AVQLVDSGGGSVQAGGSLRLSCVVSGYAFSTYDMAWFRQAPGEKCEWVSTVTNNGRTFYADSVKGRFIISRDNAKNILYLQMNSLKPEDTAVYSCAAAGVRWRCASGGNEGTQVTVSS : 1.05

// ELISA signal value for RWH1 (VHH, Camel VHH; tag not described; also called camel antibody RWH1) VHH: AVQLVESGGGSVQAGGSLRLSCAASGMNLDNYVRGWLRQAPGSKCEFVSIIRRDGTTDYGDSVKGRFTISRDNAKNTVYLQMNSLKPDDTAVYYCAAIVVPRAAEYACDGLPYRGQGTQVTVSS : 0.0738

Value of ELISA signal reported for the binder RWG8 (VHH, Camel VHH; tag not described; also called camel antibody RWG8) VHH: DVQLVESGGGLVQPGGSLRLSCAASGFTFSRYWMGWFRQAPGKGVEWVSTINSGGGSTYYADSVKGRFTISRDNAKNTLYLQLNNLKTEDTAMYYCAKEQWRTGSRGQGTQVTVSS is 2.47

Sourced from patent US20220380471A1
